Listed next: entries and their corresponding Emax.
- Tested on: primary human T-cells
- measurement notes: Proliferation assay after 5 days (CellTiter-Glo, CD3 stimulation; PBS counter screen)
- Assay type: cell-based
- particulars: Homo sapiens, T-cell, 120 h, CD3 stimulation, 5 days; normalized to reference compound A1 as stimulator control = 100%, DMSO neutral control; read-out: Emax proliferation (% activation)

{"columns": ["structure smiles", "unit annotation", "Emax"],
 "data": [
  ["CC(=O)N1CCC(n2nnc(-c3cc4c(cc3F)S(=O)(=O)C[C@H](N)C(=O)N4Cc3ccc(Cl)cc3)n2)CC1", "%", 107],
  ["CC(C)(C)c1nnc(-c2ccc3c(c2)N(Cc2ccc(N4CCN(C5CC5)CC4)cc2)C(=O)[C@@H](N)CS3(=O)=O)o1", "%", 88],
  ["COC1(c2nnc(-c3ccc4c(c3)N(Cc3ccc(Cl)cc3)C(=O)[C@@H](N)CS4(=O)=O)o2)CCC(F)(F)CC1", "%", 74]
]}

* * *

- System: primary human T-cells
- measurement notes: Proliferation assay after 5 days (CellTiter-Glo, CD3 stimulation; PBS counter screen)
- Type: cell-based
- particulars: Homo sapiens, T-cell, 120 h, primary human T-cells, CD3 stimulation, CellTiter-Glo after 5 days; EC50 of fitted sigmoidal curve; read-out: Tcell Proliferation CD3 EC50
readout kind: EC50 (µM)

{"columns": ["compound", "test value"],
 "data": [
  ["CCc1ncn(-c2cc3c(cc2F)S(=O)(=O)C[C@H](N)C(=O)N3Cc2ccc(Cl)cc2)n1", 0.935],
  ["C[C@@H](COC(F)(F)F)Nc1nnc(-c2cc3c(cc2F)S(=O)(=O)C[C@H](N)C(=O)N3Cc2ccc(Cl)cc2)o1", 0.371],
  ["CC(C)(O)c1nnc(-c2cc3c(cc2F)S(=O)(=O)C[C@H](N)C(=O)N3Cc2ccc(Cl)cc2)o1", 0.73],
  ["CC(Nc1nnc(-c2cc3c(cc2F)S(=O)(=O)C[C@H](N)C(=O)N3Cc2ccc(Cl)cc2)o1)C1CC(F)(F)C1 (stereo partly drawn)", 0.983],
  ["CCN1CC(c2nnc(-c3cc4c(cc3F)S(=O)(=O)C[C@H](N)C(=O)N4Cc3ccc(Cl)cc3)o2)CC(F)(F)C1 (stereo partly drawn)", 0.0757],
  ["CC(C)Oc1ccc(CN2C(=O)[C@@H](N)CS(=O)(=O)c3cc(F)c(-c4noc(N5CCOC6(CC6)C5)n4)cc32)nc1", 2.17],
  ["N[C@H]1CS(=O)(=O)c2cc(F)c(-c3noc(N4CCOCC4)n3)cc2N(Cc2ccc(Cl)cc2)C1=O", 0.0166],
  ["CC(C)(C)c1ccn(-c2cc3c(cc2F)S(=O)(=O)C[C@H](N)C(=O)N3Cc2ccc(Cl)cc2)n1", 5.49],
  ["CC(C)(C)c1noc(-c2cc3c(cc2F)S(=O)(=O)C[C@H](N)C(=O)N3Cc2ccc(Cl)cc2)n1", 0.265],
  ["N#CC1(c2nnc(-c3cc4c(cc3F)S(=O)(=O)C[C@H](N)C(=O)N4Cc3ccc(Cl)cc3)o2)CC1", 0.669],
  ["N[C@H]1CS(=O)(=O)c2cc(F)c(-c3noc(N4CCOC5(CC5)C4)n3)cc2N(Cc2ccc(Cl)cc2)C1=O", 0.0152],
  ["N[C@H]1CS(=O)(=O)c2cc(F)c(-c3nnc(NC4CNCC(F)(F)C4)o3)cc2N(Cc2ccc(Cl)cc2)C1=O (stereo partly drawn)", 7.24],
  ["Cc1nnc(-c2nc(-c3cc4c(cc3F)S(=O)(=O)C[C@H](N)C(=O)N4Cc3ccc(Cl)cc3)no2)o1", 0.751],
  ["CC(=O)N1CCC(C)(c2nnc(-c3cc4c(cc3F)S(=O)(=O)C[C@H](N)C(=O)N4Cc3ccc(Cl)cc3)o2)CC1", 2.47],
  ["CN1CC[C@H](n2nnc(-c3cc4c(cc3F)S(=O)(=O)C[C@H](N)C(=O)N4Cc3ccc(Cl)cc3)n2)C1", 4.66],
  ["N[C@H]1CS(=O)(=O)c2cc(F)c(-c3nnc(CC(F)(F)F)o3)cc2N(Cc2ccc(Cl)cc2)C1=O", 5.14],
  ["CN(C)CCCC(C)(C)c1nnc(-c2cc3c(cc2F)S(=O)(=O)C[C@H](N)C(=O)N3Cc2ccc(Cl)cc2)o1", 2.39],
  ["CC(C)(C)c1nnc(-c2ccc3c(c2)N(Cc2ccc(N4CCCC4)cc2)C(=O)[C@@H](N)CS3(=O)=O)o1", 1.96],
  ["Cc1cc2c(cc1-c1nnc(C(C)(C)C#N)o1)N(Cc1ccc(Cl)cc1)C(=O)[C@@H](N)CS2(=O)=O", 2.73],
  ["N[C@H]1CS(=O)(=O)c2cc(F)c(-c3nnc(NC4CCN(C5CC5)CC4)o3)cc2N(Cc2ccc(Cl)cc2)C1=O", 5.7],
  ["CC(C)(C)c1nnc(-c2cc3c(cc2F)S(=O)(=O)C[C@H](N)C(=O)N3Cc2ccc(OCC(F)F)cc2)o1", 0.235],
  ["CC(C)Oc1ccc(CN2C(=O)[C@@H](N)CS(=O)(=O)c3cc(F)c(-c4nnc(C(C)(C)C)o4)cc32)cn1", 1.24],
  ["CN[C@@H](CO)C(=O)N[C@H]1CS(=O)(=O)c2cc(F)c(-c3nnc(C(C)(C)C)o3)cc2N(Cc2ccc(Cl)cc2)C1=O", 5.84],
  ["CC(C)(C)n1cc(-c2cc3c(cc2F)S(=O)(=O)C[C@H](N)C(=O)N3Cc2ccc(Cl)cc2)cn1", 1.08],
  ["N[C@H]1CS(=O)(=O)c2ccc(-c3nnc(N4[C@@H]5CC[C@H]4COC5)o3)cc2N(Cc2ccc(Cl)cc2)C1=O", 2.81],
  ["N[C@H]1CS(=O)(=O)c2ccc(-c3nnc(N4CCOC5CC54)o3)cc2N(Cc2ccc(Cl)cc2)C1=O (stereo partly drawn)", 4.89],
  ["CC(C)(CO)n1nnc(-c2cc3c(cc2F)S(=O)(=O)C[C@H](N)C(=O)N3Cc2ccc(Cl)cc2)n1", 1.26]
]}

* * *

- Tested on: primary human T-cells
pEC50: −log10 of the molar value.
Assign T to entries whose pEC50 meets or exceeds 6; assign F to the rest.

{"columns": ["molecule", "assigned class"],
 "data": [
  ["COC(F)(c1nnc(-c2ccc3c(c2)N(Cc2ccc(Cl)cc2)C(=O)[C@@H](N)CS3(=O)=O)o1)C(F)(F)F (stereo partly shown)", "T"],
  ["CC#CCOc1ccc(CN2C(=O)[C@@H](N)CS(=O)(=O)c3ccc(-c4nnc(C(C)(C)C)o4)cc32)cc1", "F"],
  ["CC(C)(C)c1nnc(-c2ccc3c(c2)N(Cc2ccc(OCC(F)F)cc2)C(=O)[C@@H](N)CS3(=O)=O)o1", "F"],
  ["CC(C)(C)c1nc(-c2cc3c(cc2F)S(=O)(=O)C[C@H](N)C(=O)N3Cc2ccc(F)cc2)no1", "F"],
  ["N[C@H]1CS(=O)(=O)c2ccc(-c3nnc(N4CCOCC4)o3)cc2N(Cc2ccc(Cl)cc2)C1=O", "F"],
  ["CC(C)(C)c1nnc(-c2ccc3c(c2)N(Cc2ccc(OC(F)(F)C(F)F)cc2)C(=O)[C@@H](N)CS3(=O)=O)o1", "T"]
]}

* * *

- Test system: primary human T-cells
- measurement notes: Proliferation assay after 5 days (CellTiter-Glo, CD3 stimulation; PBS counter screen)
- Assay type: cell-based
- particulars: Homo sapiens, T-cell, 120 h, primary human T-cells, CD3 stimulation, CellTiter-Glo after 5 days; EC50 of fitted sigmoidal curve; read-out: Tcell Proliferation CD3 EC50
# EC50 per entry

{"columns": ["compound", "study target", "censoring operator", "EC50 [nM]"],
 "data": [
  ["CC1(c2nnc(-c3cc4c(cc3F)S(=O)(=O)C[C@H](N)C(=O)N4Cc3ccc(Cl)cc3)o2)CNC1 [Example 102]", "primary human T-cells", "=", 7690],
  ["CC(C)(C)c1nnc(-c2cc3c(cc2N)S(=O)(=O)C[C@H](N)C(=O)N3Cc2ccc(Cl)cc2)o1 [Example 275]", "primary human T-cells", "=", 5490],
  ["COC(F)(c1nc(-c2cc3c(cc2F)S(=O)(=O)C[C@H](N)C(=O)N3Cc2ccc(F)cc2)no1)C(F)(F)F (stereo partly drawn) [Example 513]", "primary human T-cells", "=", 285],
  ["CC(C)(C)c1nnc(-c2cc3c(cc2F)S(=O)(=O)C[C@H](N)C(=O)N3Cc2cnn(CC3CC3)c2)o1 [Example 255]", "primary human T-cells", "=", 4830],
  ["N[C@H]1CS(=O)(=O)c2cc(F)c(-c3nnc(NC45CC(C4)C5)o3)cc2N(Cc2ccc(Cl)cc2)C1=O [Example 501]", "primary human T-cells", "=", 473],
  ["Cc1ccc(-c2nnc(-c3cc4c(cc3F)S(=O)(=O)C[C@H](N)C(=O)N4Cc3ccc(Cl)cc3)o2)cn1 [Example 133]", "primary human T-cells", "=", 324],
  ["CN(C)C(=O)c1nc(-c2cc3c(cc2F)S(=O)(=O)C[C@H](N)C(=O)N3Cc2ccc(OC(F)(F)F)cc2)no1 [Example 328]", "primary human T-cells", "=", 1960],
  ["CCc1coc(CN2C(=O)[C@@H](N)CS(=O)(=O)c3cc(F)c(-c4nnc(C(C)(C)C)o4)cc32)n1 [Example 241]", "primary human T-cells", "=", 2940],
  ["COC(F)(c1nnc(-c2ccc3c(c2)N(Cc2ccc(OC(F)(F)F)cc2)C(=O)[C@@H](N)C[S+]3[O-])o1)C(F)(F)F (single isomer, unassigned; epimer a) [Example 425]", "primary human T-cells", "=", 1880],
  ["Cc1nc(-c2nnc(-c3cc4c(cc3F)S(=O)(=O)C[C@H](N)C(=O)N4Cc3ccc(Cl)cc3)o2)no1 [Example 109]", "primary human T-cells", "=", 1740],
  ["N[C@H]1CS(=O)(=O)c2ccc(-c3nnc(N4CCOCC4)o3)cc2N(Cc2ccc(Cl)cc2)C1=O [Example 410]", "primary human T-cells", "=", 1160],
  ["COC(F)(c1nc(-c2cc3c(cc2F)[S+]([O-])C[C@H](N)C(=O)N3Cc2ccc(F)cc2)no1)C(F)(F)F (stereo partly drawn) [Example 514]", "primary human T-cells", "=", 1950],
  ["CN(CCO)CC(C)(C)c1nnc(-c2cc3c(cc2F)S(=O)(=O)C[C@H](N)C(=O)N3Cc2ccc(Cl)cc2)o1 [Example 139]", "primary human T-cells", "=", 3400],
  ["N[C@H]1CS(=O)(=O)c2cc(F)c(-c3nnc(NC45CC(Cl)(C4)C5)o3)cc2N(Cc2ccc(Cl)cc2)C1=O [Example 500]", "primary human T-cells", "=", 1230],
  ["Cc1ccc(-c2nnc(-c3cc4c(cc3F)S(=O)(=O)C[C@H](N)C(=O)N4Cc3ccc(Cl)cc3)o2)cc1 [Example 106]", "primary human T-cells", "=", 254],
  ["N[C@H]1CS(=O)(=O)c2cc(F)c(-c3nnc(C4CC5(C4)CC(F)(F)C5)o3)cc2N(Cc2ccc(Cl)cc2)C1=O [Example 94]", "primary human T-cells", "=", 18.1],
  ["NC(Cn1nnc(-c2cc3c(cc2F)S(=O)(=O)C[C@H](N)C(=O)N3Cc2ccc(Cl)cc2)n1)C(F)(F)F (stereo partly drawn) [Example 14]", "primary human T-cells", "=", 810],
  ["N[C@H]1CS(=O)(=O)c2cc(F)c(-c3nnc(N4CC5(CCC5)C4)o3)cc2N(Cc2ccc(Cl)cc2)C1=O [Example 474]", "primary human T-cells", "=", 135],
  ["CC1(c2nnc(-c3ccc4c(c3)N(Cc3ccc(Cl)cc3)C(=O)[C@@H](N)CS4(=O)=O)o2)CCN(C(=O)OCC(F)(F)F)CC1 [Example 382]", "primary human T-cells", "=", 893],
  ["CC(C)(C)c1nnc(-c2cc3c(cc2Cl)S(=O)(=O)C[C@H](N)C(=O)N3Cc2ccc(Cl)cc2)o1 [Example 523]", "primary human T-cells", "=", 462],
  ["N[C@H]1CS(=O)(=O)c2ccc(-c3nnc(N4CCOC(C(F)F)C4)o3)cc2N(Cc2ccc(Cl)cc2)C1=O (stereo partly drawn) [Example 409]", "primary human T-cells", "=", 3880],
  ["CC(C)(C)c1nnc(-c2ccc3c(c2)N(Cc2ccc(N4CCOCC4)cc2)C(=O)[C@@H](N)CS3(=O)=O)o1 [Example 446]", "primary human T-cells", "=", 9900],
  ["CCn1cc(-c2cc3c(cc2F)S(=O)(=O)C[C@H](N)C(=O)N3Cc2ccc(Cl)cc2)nn1 [Example 6]", "primary human T-cells", ">", 20000],
  ["CC1(C)COCCN1c1nnc(-c2cc3c(cc2F)S(=O)(=O)C[C@H](N)C(=O)N3Cc2ccc(Cl)cc2)o1 [Example 491]", "primary human T-cells", "=", 142],
  ["NC1CC2(C1)CC(c1nnc(-c3cc4c(cc3F)S(=O)(=O)C[C@H](N)C(=O)N4Cc3ccc(Cl)cc3)o1)C2 (stereo partly drawn) [Example 116]", "primary human T-cells", "=", 4640],
  ["CC(C)(C)c1nnc(-c2cc3c(cc2F)S(=O)(=O)C[C@H](N)C(=O)N3Cc2ccc(OC3CCOC3)cc2)o1 (stereo partly drawn) [Example 221]", "primary human T-cells", "=", 255],
  ["CN(C)c1nnc(-c2cc3c(cc2F)S(=O)(=O)C[C@H](N)C(=O)N3Cc2ccc(Cl)cc2)o1 [Example 465]", "primary human T-cells", "=", 171]
]}
